measured_target: HLA B*2705 (Homo sapiens, UniProt P01889, D138H/D201E/E176V/E204Q/G107R/H137Y/K202T/N104T/N87E/Q56L/Q94K/R106L/R155S/R180L/S101D/S121N/S48T/Y140D/Y33H/Y91C)
Assay type: binding
protocol_conditions: positional scanning combinatorial 9-mer library; normalized to 1.0 for the best residue at each position
observable: Normalized average relative binding affinity (ARB), HLA B*2705
Provide a numeric answer; units are not to be included.

[[record]]
entry_sequence = "IXXXXXXXX [3064.0008]"
numeric_result = 0.22

[[record]]
entry_sequence = "XCXXXXXXX [3064.0022]"
numeric_result = 0.0016

[[record]]
entry_sequence = "XXXAXXXXX [3064.0061]"
numeric_result = 0.28

[[record]]
entry_sequence = "XPXXXXXXX [3064.0033]"
numeric_result = 0.0016

[[record]]
entry_sequence = "XYXXXXXXX [3064.0040]"
numeric_result = 0.0026


## Task Could you share which Normalized average relative binding affinity (ARB), HLA B*2705 value was measured for XXHXXXXXX [3064.0047] ?
## Result 0.26

## Task Could you share which Normalized average relative binding affinity (ARB), HLA B*2705 value was measured for XXRXXXXXX [3064.0055] ?
## Result 0.16

## Task Could you share which Normalized average relative binding affinity (ARB), HLA B*2705 value was measured for KXXXXXXXX [3064.0009] ?
## Result 0.26

###

measured_target: HLA A*3001 (Homo sapiens, UniProt P04439, D140H/D185E/E176W/F33S/G80R/H175R/K168Q/R138E/R41S)
test_protocol: biochemical
Assay type: binding
pIC50: −log10 of the molar value. Where a SMILES comes first, the peptide text is derived from it.
Is pIC50 at least 8? Then rule met. If not, rule not met.

Below are worked cases with known answers.
[[record]]
compound = "CC(C)C[C@H](NC(=O)[C@H](CO)NC(=O)[C@H](CC(C)C)NC(=O)[C@H](CS)NC(=O)[C@H](CCCNC(=N)N)NC(=O)[C@H](CO)NC(=O)[C@@H](N)CS)C(=O)N[C@@H](Cc1ccccc1)C(=O)N[C@@H](Cc1ccc(O)cc1)C(=O)O [3102.0178] (H-CSRCLSLFY-OH)"
label_value = "rule not met"

[[record]]
compound = "CC[C@H](C)[C@H](NC(=O)[C@@H](NC(=O)[C@@H](N)CCCCN)C(C)C)C(=O)N[C@H](C(=O)N[C@@H](CCCNC(=N)N)C(=O)N[C@@H](CC(N)=O)C(=O)N[C@@H](CC(C)C)C(=O)N[C@@H](CC(N)=O)C(=O)N[C@@H](CCCCN)C(=O)O)C(C)C [3102.0191] (H-KVIVRNLNK-OH)"
label_value = "rule met"

[[record]]
compound = "CC[C@H](C)[C@H](NC(=O)[C@@H](N)CO)C(=O)N[C@@H](CCCCN)C(=O)N[C@@H](CCCNC(=N)N)C(=O)N[C@@H](CO)C(=O)N[C@@H](CC(N)=O)C(=O)N[C@H](C(=O)N[C@@H](Cc1ccccc1)C(=O)N[C@@H](C)C(=O)O)C(C)C [3102.0214] (H-SIKRSNVFA-OH)"
label_value = "rule met"

[[record]]
compound = "CC[C@H](C)[C@H](NC(=O)[C@@H](N)CCCNC(=N)N)C(=O)N[C@@H](CCCNC(=N)N)C(=O)N[C@@H](Cc1ccccc1)C(=O)N[C@@H](Cc1ccccc1)C(=O)N[C@@H](Cc1ccc(O)cc1)C(=O)N[C@@H](CCCNC(=N)N)C(=O)N[C@@H](CCCCN)C(=O)N[C@@H](CCCCN)C(=O)O [3102.0083] (H-RIRFFYRKK-OH)"
label_value = "rule met"

[[record]]
compound = "CC[C@H](C)[C@H](NC(=O)[C@H](CO)NC(=O)[C@H](C)NC(=O)[C@@H](NC(=O)[C@@H](NC(=O)[C@H](CC(N)=O)NC(=O)[C@H](CCCNC(=N)N)NC(=O)[C@@H](NC(=O)[C@@H](N)CCCNC(=N)N)C(C)C)[C@@H](C)CC)[C@@H](C)CC)C(=O)O [3102.0367] (H-RVRNIIASI-OH)"
label_value = "rule met"


## Task For this compound, is measured pIC50 8 or higher? CC(C)C[C@H](NC(=O)[C@H](CCC(=O)O)NC(=O)[C@H](CCCNC(=N)N)NC(=O)[C@H](CCCCN)NC(=O)[C@H](Cc1ccc(O)cc1)NC(=O)[C@H](Cc1ccccc1)NC(=O)[C@H](CCCCN)NC(=O)[C@@H](NC(=O)[C@@H](N)CCCCN)C(C)C)C(=O)O [3102.0235] (H-KVKFYKREL-OH)
## Result rule not met
